- Assayed Target: HPV-11 E2 (full length) (Human papillomavirus type 11, UniProt P04015 1-367)
- Sequence (P04015 whole entry): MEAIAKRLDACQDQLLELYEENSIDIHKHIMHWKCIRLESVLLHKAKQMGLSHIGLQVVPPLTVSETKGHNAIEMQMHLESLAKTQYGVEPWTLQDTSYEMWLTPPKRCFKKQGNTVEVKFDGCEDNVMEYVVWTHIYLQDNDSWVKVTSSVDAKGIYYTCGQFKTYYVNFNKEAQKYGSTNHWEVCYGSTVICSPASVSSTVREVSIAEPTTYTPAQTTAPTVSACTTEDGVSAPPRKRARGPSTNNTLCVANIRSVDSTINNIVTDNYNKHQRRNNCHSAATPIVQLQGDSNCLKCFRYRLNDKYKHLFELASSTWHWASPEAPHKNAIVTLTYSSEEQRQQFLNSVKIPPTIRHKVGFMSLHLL
- Measurement Notes: EMSA; 20 C; EMSA: 10 mM HEPES pH 7.9, 50 mM NaCl, 4 mM MgCl2, 10% glycerol, 5 mM DTT, 0.2 mM EDTA, 0.1 mg/mL BSA, 10 ng/uL poly(dI-dC), 10 min 30 C
- Recorded Conditions: protein: recombinant; tags: N-terminal His (pET28a); chain copies: 2; label: 32P
Quantity Name: Kd (nM)
Give the number; nM is assumed, so skip it.

Endpoint output: Kd of BS1 (dsDNA) DNA 1: GGTTCAACCGAAAACGGTTATATG DNA 2: CATATAACCGTTTTCGGTTGAACC . Value?
6.2
